target: plasma purified human complement protein C3 (human) (UniProt P01024); assay: cell-based or functional assay
Sequence (P01024 23-667, chain 1 of 2): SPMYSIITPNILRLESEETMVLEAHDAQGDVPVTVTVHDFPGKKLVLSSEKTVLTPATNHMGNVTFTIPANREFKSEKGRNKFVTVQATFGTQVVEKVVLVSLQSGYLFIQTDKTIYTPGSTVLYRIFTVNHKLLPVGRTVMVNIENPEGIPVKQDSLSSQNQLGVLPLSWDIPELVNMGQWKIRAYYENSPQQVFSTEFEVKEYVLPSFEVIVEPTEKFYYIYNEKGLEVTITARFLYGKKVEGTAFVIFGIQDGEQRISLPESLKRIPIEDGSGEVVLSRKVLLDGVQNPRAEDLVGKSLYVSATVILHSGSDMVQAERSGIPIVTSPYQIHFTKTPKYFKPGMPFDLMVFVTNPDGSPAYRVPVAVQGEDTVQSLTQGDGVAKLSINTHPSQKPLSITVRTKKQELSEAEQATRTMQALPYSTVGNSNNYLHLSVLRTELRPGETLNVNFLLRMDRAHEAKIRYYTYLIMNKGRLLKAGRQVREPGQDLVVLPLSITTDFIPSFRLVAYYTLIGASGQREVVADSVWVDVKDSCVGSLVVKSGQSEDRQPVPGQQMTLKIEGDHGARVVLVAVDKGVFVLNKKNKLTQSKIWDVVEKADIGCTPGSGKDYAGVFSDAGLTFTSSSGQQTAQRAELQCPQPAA
Sequence (P01024 672-1663, chain 2 of 2): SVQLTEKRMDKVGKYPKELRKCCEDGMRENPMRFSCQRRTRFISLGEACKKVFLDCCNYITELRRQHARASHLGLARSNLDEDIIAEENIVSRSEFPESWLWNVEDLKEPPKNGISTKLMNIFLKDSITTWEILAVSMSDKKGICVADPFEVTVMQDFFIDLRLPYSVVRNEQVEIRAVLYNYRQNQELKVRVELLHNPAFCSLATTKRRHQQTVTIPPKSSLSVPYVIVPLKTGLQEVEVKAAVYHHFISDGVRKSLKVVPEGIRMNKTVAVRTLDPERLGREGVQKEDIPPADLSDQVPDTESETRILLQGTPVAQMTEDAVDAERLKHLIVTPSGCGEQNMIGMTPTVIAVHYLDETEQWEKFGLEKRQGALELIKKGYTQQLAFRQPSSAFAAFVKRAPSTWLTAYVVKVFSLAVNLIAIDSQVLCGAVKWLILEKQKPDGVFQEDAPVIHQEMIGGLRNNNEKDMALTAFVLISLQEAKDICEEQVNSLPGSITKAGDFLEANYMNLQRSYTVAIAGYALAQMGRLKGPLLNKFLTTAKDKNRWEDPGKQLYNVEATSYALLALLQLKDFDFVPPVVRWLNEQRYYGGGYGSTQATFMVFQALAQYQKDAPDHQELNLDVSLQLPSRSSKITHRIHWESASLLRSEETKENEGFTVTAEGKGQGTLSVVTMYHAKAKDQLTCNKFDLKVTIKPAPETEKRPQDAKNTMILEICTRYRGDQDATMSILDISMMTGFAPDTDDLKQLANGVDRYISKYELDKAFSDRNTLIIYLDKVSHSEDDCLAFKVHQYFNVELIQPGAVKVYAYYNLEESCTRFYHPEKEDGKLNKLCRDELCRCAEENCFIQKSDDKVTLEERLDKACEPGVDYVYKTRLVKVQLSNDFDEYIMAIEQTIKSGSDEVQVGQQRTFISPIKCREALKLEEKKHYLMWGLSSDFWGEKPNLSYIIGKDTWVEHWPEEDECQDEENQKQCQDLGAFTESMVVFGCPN
property-label: EC50 hC3 cleavage (nM)
Kindly provide the numeric value in nM only, without the unit symbol.

// worked examples, EC50 hC3 cleavage included
Query string: Look up EC50 hC3 cleavage for this binder: MTSP-1 protease domain I41S/F99L/C122S/G151N/Q175M/Q192G/D217V (enzyme) VVGGTDADEGEWPWQVSLHALGQGHSCGASLISPNWLVSAAHCYIDDRGFRYSDPTQWTAFLGLHDQSQRSAPGVQERRLKRIISHPFFNDFTLDYDIALLELEKPAEYSSMVRPISLPDASHVFPAGKAIWVTGWGHTQYGGTNALILQKGEIRVINQTTCENLLPQMITPRMMCVGFLSGGVDSCGGDSGGPLSSVEADGRIFQAGVVSWGVGCAQRNKPGVYTRLPLFRDWIKENTGV
Result string: 3.19

Query string: Look up EC50 hC3 cleavage for this binder: MTSP-1 protease domain I41G/F99L/C122S/G151N/Q192A (enzyme) VVGGTDADEGEWPWQVSLHALGQGHGCGASLISPNWLVSAAHCYIDDRGFRYSDPTQWTAFLGLHDQSQRSAPGVQERRLKRIISHPFFNDFTLDYDIALLELEKPAEYSSMVRPISLPDASHVFPAGKAIWVTGWGHTQYGGTNALILQKGEIRVINQTTCENLLPQQITPRMMCVGFLSGGVDSCAGDSGGPLSSVEADGRIFQAGVVSWGDGCAQRNKPGVYTRLPLFRDWIKENTGV
Result string: 61

Below: the item to evaluate.
Query string: Look up EC50 hC3 cleavage for this binder: MTSP-1 protease domain I41E/F97V/F99L/C122S/G151N/Q175L/D217H (enzyme) VVGGTDADEGEWPWQVSLHALGQGHECGASLISPNWLVSAAHCYIDDRGFRYSDPTQWTAFLGLHDQSQRSAPGVQERRLKRIISHPFFNDVTLDYDIALLELEKPAEYSSMVRPISLPDASHVFPAGKAIWVTGWGHTQYGGTNALILQKGEIRVINQTTCENLLPQLITPRMMCVGFLSGGVDSCQGDSGGPLSSVEADGRIFQAGVVSWGHGCAQRNKPGVYTRLPLFRDWIKENTGV
Result string: 16.5

Recorded values, source patent US20240018502A1.
